Cited source for all entries: patent US11130803B2

- subject.of.test: T1, hLTBP3-proTGFβ1 (Homo sapiens, UniProt P01137)
- T1 construct: made in house; host or cells: Expi293F cells, transient co-transfection
- method.summary: MSD-SET solution equilibrium titration binding
- test.conditions: MSD-SET at equilibrium, hIgG4, human complex; in M
quantity.name: (C) hLTBP3, Matrix-associated proTGFβ1 KD
Field format: numeric only.

I'd like to know its (C) hLTBP3, Matrix-associated proTGFβ1 KD. The molecule in question is Ab26: monoclonal antibody; VH SEQ ID NO: 134, VL SEQ ID NO: 15 (antibody, V domains shown) VH: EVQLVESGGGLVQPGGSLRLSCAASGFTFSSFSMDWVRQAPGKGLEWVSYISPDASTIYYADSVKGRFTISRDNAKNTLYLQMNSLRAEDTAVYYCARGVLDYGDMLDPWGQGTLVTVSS VL: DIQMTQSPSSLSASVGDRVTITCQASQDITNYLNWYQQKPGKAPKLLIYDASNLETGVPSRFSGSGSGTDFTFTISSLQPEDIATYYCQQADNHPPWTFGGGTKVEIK
2.30E−11
